System: MS2 coat protein
Experimental Protocol: apparent KD of MS2 coat protein; higher = weaker reporter binding
Condition: Eterna round: R107; input ligand: arginine 13.2 mM
Endpoint Name: apparent KD of MS2 coat protein

{"Construct Sequence": "UUGACAUGAGGAUCACCCAUGUAAACUGAAGGAGCGUCGAAAAUGACAGGUAGGUCGCAGAAUAAUAAAGGUGAUGGUAAAUAUU [Exclusion Arginine AGF1]", "Endpoint Name": "apparent KD of MS2 coat protein", "Value": "21.4 nM"}
{"Construct Sequence": "UUCGUUUGCGGAAGGAGCGACGGACAUCGGUGACCCACGCACAUGAGGAUCACCCAUGUACGUCAGGUAGGUCGCCGCUAAGAGU [XArg-B4]", "Endpoint Name": "apparent KD of MS2 coat protein", "Value": "20.3 nM"}
{"Construct Sequence": "UGUAUGUGAUCUGAUACCAGCUUUGAUAACCUGAGGAUCACCCUGGUAAGGCGAAAGCCAAGCCCUUGGCAGCAGAUCGCAUACU", "Endpoint Name": "apparent KD of MS2 coat protein", "Value": "40.1 nM"}
{"Construct Sequence": "AACAACUAGUCGGCCGCCACUCAUAAUACAUGAGGAUCACCCAUGUAUACUUGGUUUUUAUAUUUGAGGACCGGGACAGUUGCAU [JR_Nu_ExcTryptoB_Sub026]", "Endpoint Name": "apparent KD of MS2 coat protein", "Value": "12.5 nM"}
{"Construct Sequence": "GAGCUGAUGUAGGGUGGAUAUCCUUGAGAUACCAGUACAGAAAUGUACCCUUGGCAGCUCUUCCUUACAUGAGGAUCACCCAUGU [Ex Theophylline A 25]", "Endpoint Name": "apparent KD of MS2 coat protein", "Value": "18.9 nM"}
{"Construct Sequence": "AAUAGCUUGAGGAUCACCCAAGUAAAAGAUACCAGAGUGAUGAUCCUCCCUUGGCAGCUUAACGCUGAUUGAUUACAAUCAGCGA", "Endpoint Name": "apparent KD of MS2 coat protein", "Value": "46.5 nM"}
{"Construct Sequence": "AGCGACAUGCGUGAUACCAGCUACAUGAGGAUCACCCAUGUACGUAGGAAACUACUGUGUAGCCCUUGGCAGCAUAGUGCAUGUC [Exclusion - Theophylline B (Freestyle 21)]", "Endpoint Name": "apparent KD of MS2 coat protein", "Value": "14.6 nM"}
{"Construct Sequence": "ACAUGAGGAUCACCCAUGUAUGAUGUUCCUCGAGGACCGGUACGGCCGCCACUCGAACGAGUGGCGCGCGAGCGCGCGCUCGCGC [aVa]", "Endpoint Name": "apparent KD of MS2 coat protein", "Value": "14 nM"}
{"Construct Sequence": "UCGCAUUGCUGCGAUACCAGACAUGAGGAUCACCCAUGUACCAAGGUACGAAAAUAACAUGUCCCUUGGCAGCGCAGCAAUGCGU [MAT - Exclusion Theophlline B - Mod of Eli - D5]", "Endpoint Name": "apparent KD of MS2 coat protein", "Value": "11.9 nM"}
{"Construct Sequence": "UGUAUGGACUGAAGGAGCGGGAAAAUAACCUGAGGAUCACCCAGGUAAAAGGCGAAAGCCACCCAGGUAGGUCGCAGUCCAUACU", "Endpoint Name": "apparent KD of MS2 coat protein", "Value": "5.69 nM"}
{"Construct Sequence": "CGUCGAAACUGAAGGAGCGAGAUGACAACAUUGGGUCUAACAUGAGGAUCACCCAUGUAAUCUCAGGUAGGUCGCGGUGACAACA [Exclusion Arginine B GF 17]", "Endpoint Name": "apparent KD of MS2 coat protein", "Value": "40.1 nM"}
